Molecular target: PRMT5/MEP50 (Homo sapiens (Human), UniProt O14744)
Sequence (O14744 other isoform, or with tags, fused parts or gaps): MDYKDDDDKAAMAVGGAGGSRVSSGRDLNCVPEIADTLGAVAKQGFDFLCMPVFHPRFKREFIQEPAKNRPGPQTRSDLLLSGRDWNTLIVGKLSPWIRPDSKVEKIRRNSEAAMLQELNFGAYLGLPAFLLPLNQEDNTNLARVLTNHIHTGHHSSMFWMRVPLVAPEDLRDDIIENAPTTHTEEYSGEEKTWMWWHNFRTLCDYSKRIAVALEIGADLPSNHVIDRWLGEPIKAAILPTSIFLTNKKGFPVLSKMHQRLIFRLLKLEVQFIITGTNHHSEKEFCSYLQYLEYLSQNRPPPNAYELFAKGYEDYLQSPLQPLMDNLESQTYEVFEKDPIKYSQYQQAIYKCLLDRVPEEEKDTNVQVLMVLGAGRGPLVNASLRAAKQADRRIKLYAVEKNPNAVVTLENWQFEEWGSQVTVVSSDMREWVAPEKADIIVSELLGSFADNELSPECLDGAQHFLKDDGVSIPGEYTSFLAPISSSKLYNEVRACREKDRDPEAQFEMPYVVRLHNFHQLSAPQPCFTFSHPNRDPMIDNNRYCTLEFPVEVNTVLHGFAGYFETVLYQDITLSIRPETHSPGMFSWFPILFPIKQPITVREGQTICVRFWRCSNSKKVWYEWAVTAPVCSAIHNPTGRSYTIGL
Sequence (Q9BQA1 other isoform, or with tags, fused parts or gaps partner): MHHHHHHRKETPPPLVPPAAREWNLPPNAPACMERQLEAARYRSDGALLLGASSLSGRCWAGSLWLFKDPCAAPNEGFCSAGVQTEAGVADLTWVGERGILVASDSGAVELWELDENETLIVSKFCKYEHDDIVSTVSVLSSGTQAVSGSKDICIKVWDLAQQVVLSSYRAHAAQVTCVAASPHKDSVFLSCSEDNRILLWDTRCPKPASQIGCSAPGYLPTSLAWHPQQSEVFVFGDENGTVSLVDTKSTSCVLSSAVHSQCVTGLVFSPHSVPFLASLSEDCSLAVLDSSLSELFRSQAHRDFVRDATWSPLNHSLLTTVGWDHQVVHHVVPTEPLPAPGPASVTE
Assay: PRMT5 Biochemical Assay (PRMT5/MEP50 enzyme assay on peptide substrate, 3H-SAM Flashplate)
Conditions: PRMT5 biochemical assay
Let's look at some compounds and their measured IC50.

CCSCCNc1cc(C(=O)NC[C@H](O)CN2CCc3ccccc3C2)ncn1	< 100 nM

Q. Identify the measured IC50 of CC(=O)N1CCC(Nc2cc(C(=O)NCC(F)CN3CCc4ccccc4C3)ncn2)CC1 (stereo not shown) for PRMT5/MEP50 (Homo sapiens (Human), UniProt O14744).
A. 101 to 1000 nM

Q. Give PRMT5/MEP50 (Homo sapiens (Human), UniProt O14744) IC50 for CC(C)(C)C(=O)N1CC(Nc2cc(C(=O)NC[C@H](O)CN3CCc4ccccc4C3)ncn2)C1
A. < 100 nM

Q. Report IC50 for CC(=O)N1CCC(Nc2cc(C(=O)NCC(O)C(C)N3CCc4ccccc4C3)ncn2)CC1 (stereo not shown) tested on PRMT5/MEP50 (Homo sapiens (Human), UniProt O14744).
A. 101 to 1000 nM

----------
Collected EC50 values appear next to each entry.
Tested on: Z-138 cell line
Assay: Z-138 Proliferation Assay (Cell Titer Glo, 5 days)
Assay type: cell-based
Conditions: Homo sapiens, 120 h; Z-138 cells, 5 days, Cell Titer Glo; read-out: Proliferation EC50
Procedure: RPMI/Glutamax medium, penicillin-streptomycin, heat inactivated fetal bovine serum were purchased from Life Technologies, Grand Island, N.Y., USA. V-bottom polypropylene 384-well plates were purchased from Greiner Bio-One, Monroe, N.C., USA. […] SpectraMax M5 plate reader was purchased from Molecular Devices LLC, Sunnyvale, Calif., USA. […] Cell viability was measured by quantitation of ATP present in the cell cultures, adding […] of Cell Titer Glo® reagent to the cell plates. […]

Some entries whose results are on file:
CCc1nc(NC2CNC2)cc(C(=O)NC[C@H](O)CN2CCc3ccccc3C2)n1 [Compound 487]	1 to 10 µM
O=C(NC[C@H](O)CN1CCc2ccccc2C1)c1cc(NC2CNC2)ccn1 [Compound 565]	0.101 to 1 µM
CO[C@H]1C[C@@H](Nc2cc(C(=O)NC[C@H](O)CN3CCc4ccccc4C3)ncn2)C1 [Compound 563]	0.101 to 1 µM
CC(=O)N[C@H]1CC[C@@H](Nc2cc(C(=O)NC[C@H](O)CN3CCc4ccccc4C3)ncn2)CC1 [Compound 590]	0.101 to 1 µM

Q. What value of measured EC50 is listed for CC(C)N1CC(Nc2cc(C(=O)NC[C@H](O)CN3CCc4ccccc4C3)ncn2)C1 [Compound 423] ?
A. 10 to 50 µM

Q. Form field: reported EC50 of CC1(C)c2ccccc2CCN1C[C@@H](O)CNC(=O)c1cc(NC2COC2)ncn1 [Compound 588]
A. > 5 µM

----------
Target: PRMT5/MEP50 (Homo sapiens (Human), UniProt O14744)
Test: PRMT5 Biochemical Assay (PRMT5/MEP50 enzyme assay on peptide substrate, 3H-SAM Flashplate)
Details: PRMT5 biochemical assay
Excerpt: S-adenosylmethionine (SAM), S-adenosylhomocysteine (SAH), bicine, KCl, Tween20, dimethylsulfoxide (DMSO), bovine skin gelatin (BSG), and Tris(2-carboxyethyl)phosphine hydrochloride solution (TCEP) were purchased from Sigma-Aldrich at the highest level of purity possible. ^3H-SAM was purchase from American Radiolabeled Chemicals with a specific activity of 80 Ci/mmol. 384-well streptavidin Flashplates were purchased from PerkinElmer. […]
pIC50: −log10 of the molar value.
Listed next: entries and their corresponding pIC50.

Recorded pIC50, per entry:
CC(=O)N1CCC(Nc2cc(C(=O)NC[C@H](O)CN3CCc4ccccc4C3)cc(N3CCN(C(C)=O)CC3)n2)CC1	> 7.00
CCSCCN1CCC(Nc2cc(C(=O)NC[C@H](O)CN3CCc4ccccc4C3)ncn2)CC1	> 7.00
CC(=O)N1CCC(Nc2cc(C(=O)NC[C@H](O)CN3CCc4ccccc4C3)cc(N3CCN(C)CC3)n2)CC1	> 7.00
C[C@@H](N1CC(Nc2cc(C(=O)NC[C@H](O)CN3CCc4ccccc4C3)ncn2)C1)C(F)(F)F	> 7.00
CC(=O)N1CC(Nc2cc(C(=O)NC[C@H](O)CN3CCc4ccccc4C3)nc(N3CCOCC3)n2)C1	> 7.00

Q. Fill in: pIC50 of Cc1c(NC2COC2)ncnc1C(=O)NC[C@H](O)CN1CCc2ccccc2C1 is ___
A. > 7.00

Q. Consider the compound O=C(NC[C@H](O)CN1CCc2ccccc2C1)c1cc(NC2CNC2)nc(N2CCN(C(=O)C3CC3)CC2)n1 and give its measured pIC50.
A. > 7.00

Q. # query: pIC50 of entry O=C(NC[C@H](O)CN1CCc2ccccc2C1)C1=CC2=N[C@H](CO)CN2C=N1
A. 6.00 to 7.00

Q. Please give the measured pIC50 for this compound: O=C(NC[C@H](O)CN1CCc2ccccc2C1)c1cc(NC2COC2)nc(N2CCC2)n1
A. > 7.00

Q. For the compound shown here, O=C(NC[C@H](O)CN1CCc2ccccc2C1)c1ncnc(NC2COC2)c1Cl , give the reported pIC50.
A. > 7.00

Q. Name the recorded pIC50 for CC(=O)N1CCC(Nc2cc(C(=O)NC[C@H](O)CN3CCc4c(C)cccc4C3)ccn2)CC1 .
A. > 7.00

Q. Recorded pIC50 of CN1CCCCC1CNc1cc(C(=O)NC[C@H](O)CN2CCc3ccccc3C2)ccn1 (some centres unmarked) , please.
A. > 7.00

----------
# pIC50 per entry
Target: PRMT5/MEP50 (Homo sapiens (Human))
Assay: PRMT5 Biochemical Assay (PRMT5/MEP50 enzyme assay on peptide substrate, 3H-SAM Flashplate)
pIC50: −log10 of the molar value.

Example entries and their recorded answers appear below.
Cc1cnc(NC2CN(CC(F)(F)F)C2)cc1C(=O)NC[C@H](O)CN1CCc2ccccc2C1	6.00 to 7.00
CS(=O)(=O)Nc1ccc(C(=O)NCC(O)CN2CCc3ccccc3C2)cc1 (centres unmarked)	6.00 to 7.00

--- query ---
Q. pIC50 for CC(=O)N1CC(Nc2cc(C(=O)NC[C@H](O)CN3CCc4ccccc4C3)c(C)cn2)C1 ?
A. > 7.00

----------
Test system: Z-138 cell line
Test: Z-138 Proliferation Assay (Cell Titer Glo, 5 days)
Type: cell-based
Settings: Homo sapiens, 120 h; Z-138 cells, 5 days, Cell Titer Glo; read-out: Proliferation EC50
pEC50: −log10 of the molar value.
parameter: pEC50

Recorded pEC50, per entry:
O=C(NC[C@H](O)CN1CCc2ccccc2C1)c1cc(NC2CN(C(=O)C3CCC3)C2)ccn1 [Compound 577]	> 7.00
O=C(NC[C@H](O)CN1CCc2ccccc2C1)c1cnnc(NC2CCNC2)c1 (stereo partly drawn) [Compound 686]	< 5.30
CC(=O)N1CC(Nc2cc(C(=O)NC(C)C(O)CN3CCc4ccccc4C3)ncn2)C1 (stereo not drawn) [Compound 524]	< 5.30
COc1nc(NC2CNC2)cc(C(=O)NC[C@H](O)CN2CCc3ccccc3C2)n1 [Compound 501]	5.00 to 6.00
CC(=O)N1CC(Nc2cc(C(=O)NC[C@H](O)CN3CCc4ccccc4C3)nc(C(C)(C)C)n2)C1 [Compound 546]	> 7.00

Q. Form field: reported pEC50 of CCC(=O)N1CCN(c2nc(NC3COC3)cc(C(=O)NC[C@H](O)CN3CCc4ccccc4C3)n2)CC1 [Compound 462]
A. > 7.00

Q. Quick check: pEC50 of CCCC(=O)N1CC(Nc2cc(C(=O)NC[C@H](O)CN3CCc4ccccc4C3)ccn2)C1 [Compound 503] ?
A. > 7.00

Q. Can you share its pEC50? I mean this molecule: NC(=O)CN1CC(Nc2cc(C(=O)NC[C@H](O)CN3CCc4ccccc4C3)ncn2)C1 [Compound 621]
A. 5.00 to 6.00

Q. Item CCCC(=O)N1CCC(Nc2cc(C(=O)NC[C@H](O)CN3CCc4ccccc4C3)ccn2)CC1 [Compound 468] has what recorded pEC50?
A. > 7.00

Q. Quick check: pEC50 of CC(=O)N1CCC[C@H](Nc2cc(C(=O)NC[C@H](O)CN3CCc4ccccc4C3)ncn2)C1 [Compound 572] ?
A. 6.00 to 7.00

Q. If you can, please state the reported pEC50 value of CN(c1cc(C(=O)NC[C@H](O)CN2CCc3ccccc3C2)ncn1)C1COC1 [Compound 448] .
A. < 4.70

Q. Dear colleague, I am looking for the recorded pEC50 of the following molecule: O=C(NC[C@H](O)CN1CCc2ccccc2C1)c1cc(NC2COC2)nc(N2CCCC2)n1 [Compound 451]
A. 6.00 to 7.00

----------
Tested on: Z-138 cell line
Assay: Z-138 Proliferation Assay (Cell Titer Glo, 5 days)
Format: cell-based
Details: Homo sapiens, 120 h; Z-138 cells, 5 days, Cell Titer Glo; read-out: Proliferation EC50
Quick list: EC50 per entry.

# example entries with known answers
O=C(NC[C@H](O)CN1CCc2ccccc2C1)c1cc(NC2CCN(C(=O)C3CC3)CC2)ccn1 [Compound 638]	< 100 nM
CC(=O)N1CCC(Nc2cc(C(=O)NCC(C)CN3CCc4ccccc4C3)ccn2)CC1 (stereo not drawn) [Compound 660]	101 to 1000 nM

Now take the following molecule into account.
Q. Return reported EC50; argument: O=C(NC[C@H](O)CN1CCc2ccccc2C1)c1cc(N[C@H]2CC[C@@H](O)CC2)ncn1 [Compound 592]
A. 101 to 1000 nM

All values here come from patent US10307413B2.
